meta.source: the supplement of paper PMC7877785

- protocol.details: self-splicing fitness, log relative to wild type (ln ratio); higher = more splicing; Tetrahymena group I intron in knt gene, E. coli kanamycin selection, DiMSum; sequences stand for … in CUCUCU…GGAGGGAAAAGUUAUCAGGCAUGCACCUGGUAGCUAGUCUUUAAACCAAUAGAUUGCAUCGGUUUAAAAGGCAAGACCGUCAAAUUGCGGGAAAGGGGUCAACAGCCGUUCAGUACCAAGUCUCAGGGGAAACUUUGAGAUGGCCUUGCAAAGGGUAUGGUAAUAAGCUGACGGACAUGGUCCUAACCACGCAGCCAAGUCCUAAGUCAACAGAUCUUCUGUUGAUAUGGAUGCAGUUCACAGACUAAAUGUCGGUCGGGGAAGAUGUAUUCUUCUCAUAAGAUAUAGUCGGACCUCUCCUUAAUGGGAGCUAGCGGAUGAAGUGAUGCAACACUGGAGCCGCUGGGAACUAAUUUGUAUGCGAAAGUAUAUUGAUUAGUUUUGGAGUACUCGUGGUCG;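 also: selection with 25 µg/mL kanamycin versus none on LB agar overnight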
- test.parameters: 37 °C
Below, each entry is listed alongside its reported self-splicing fitness (ln).

{"sequence.chain": "GGGUAGCAAUAUUACGACAU", "self-splicing fitness (ln)": 0.159}
{"sequence.chain": "AAAUAGCAAUAUUACGGUUU", "self-splicing fitness (ln)": -0.657}
{"sequence.chain": "AUUCAGCAAUAUUACGCUUU", "self-splicing fitness (ln)": -0.787}
{"sequence.chain": "ACUAAGCAAUAUUACGCCCA", "self-splicing fitness (ln)": -0.482}
{"sequence.chain": "GUAGAGCAAUAUUACGUCAC", "self-splicing fitness (ln)": -1.06}
{"sequence.chain": "UUGUAGCAAUAUUACGGCUG", "self-splicing fitness (ln)": -0.373}
{"sequence.chain": "UCCUAGCAAUAUUACGAGAG", "self-splicing fitness (ln)": -2.51}
{"sequence.chain": "AACGAGCAAUAUUACGGAAG", "self-splicing fitness (ln)": -2.45}
{"sequence.chain": "AUCGAGCAAUAUUACGUCAG", "self-splicing fitness (ln)": -2.99}
{"sequence.chain": "UUCGAGCAAUAUUACGCGAG", "self-splicing fitness (ln)": -1.94}
{"sequence.chain": "AGUCAGCAAUAUUACGAAUU", "self-splicing fitness (ln)": -0.509}
{"sequence.chain": "CCAUAGCAAUAUUACGCAUC", "self-splicing fitness (ln)": -2.31}
{"sequence.chain": "AGAGAGCAAUAUUACGUAAG", "self-splicing fitness (ln)": -2.7}
{"sequence.chain": "AUCCAGCAAUAUUACGCGAC", "self-splicing fitness (ln)": -1.86}
{"sequence.chain": "GAGCAGCAAUAUUACGUCGC", "self-splicing fitness (ln)": -1.47}
{"sequence.chain": "AGCCAGCAAUAUUACGUAAC", "self-splicing fitness (ln)": -2.04}
{"sequence.chain": "CGCGAGCAAUAUUACGGGGG", "self-splicing fitness (ln)": -3.07}
{"sequence.chain": "GGGGAGCAAUAUUACGGUAC", "self-splicing fitness (ln)": 0.506}
{"sequence.chain": "CUAAAGCAAUAUUACGUCAC", "self-splicing fitness (ln)": -2.62}
{"sequence.chain": "UGGUAGCAAUAUUACGACCA", "self-splicing fitness (ln)": -1.02}
{"sequence.chain": "CAAGAGCAAUAUUACGAGCC", "self-splicing fitness (ln)": -2.31}
{"sequence.chain": "CAUGAGCAAUAUUACGUGCA", "self-splicing fitness (ln)": -1.97}
{"sequence.chain": "CAGUAGCAAUAUUACGGGCC", "self-splicing fitness (ln)": -2.19}
{"sequence.chain": "UUGCAGCAAUAUUACGAAAG", "self-splicing fitness (ln)": -1.5}
{"sequence.chain": "UGCCAGCAAUAUUACGUGUG", "self-splicing fitness (ln)": -1.14}
{"sequence.chain": "CUAUAGCAAUAUUACGUCAC", "self-splicing fitness (ln)": -1.77}
{"sequence.chain": "UUUAAGCAAUAUUACGUGCA", "self-splicing fitness (ln)": -0.0552}
{"sequence.chain": "GCUCAGCAAUAUUACGGGAC", "self-splicing fitness (ln)": -0.928}
{"sequence.chain": "UAGGAGCAAUAUUACGGACG", "self-splicing fitness (ln)": -0.862}
{"sequence.chain": "UCCUAGCAAUAUUACGUUAC", "self-splicing fitness (ln)": -2.09}
{"sequence.chain": "UUUGAGCAAUAUUACGACUC", "self-splicing fitness (ln)": -2.37}
{"sequence.chain": "UUCAAGCAAUAUUACGCAGA", "self-splicing fitness (ln)": -1.91}
{"sequence.chain": "CUUCAGCAAUAUUACGGGAA", "self-splicing fitness (ln)": -2.08}
{"sequence.chain": "AUGAAGCAAUAUUACGAUGA", "self-splicing fitness (ln)": 0.274}
{"sequence.chain": "AUGAAGCAAUAUUACGUGUU", "self-splicing fitness (ln)": -1.64}
{"sequence.chain": "UAACAGCAAUAUUACGGAUA", "self-splicing fitness (ln)": -0.486}
{"sequence.chain": "UACGAGCAAUAUUACGCAGU", "self-splicing fitness (ln)": -2.95}
{"sequence.chain": "UUGGAGCAAUAUUACGGAGA", "self-splicing fitness (ln)": -1.08}
{"sequence.chain": "UCUCAGCAAUAUUACGAUCU", "self-splicing fitness (ln)": -2}
{"sequence.chain": "GGUCAGCAAUAUUACGUCAG", "self-splicing fitness (ln)": -3.23}
{"sequence.chain": "AGAUAGCAAUAUUACGUUCG", "self-splicing fitness (ln)": 0.123}
{"sequence.chain": "UAUCAGCAAUAUUACGGCUC", "self-splicing fitness (ln)": -0.563}
{"sequence.chain": "CUCGAGCAAUAUUACGGAGC", "self-splicing fitness (ln)": -3.22}
{"sequence.chain": "CCCCAGCAAUAUUACGCUGC", "self-splicing fitness (ln)": -2.06}
{"sequence.chain": "CAAUAGCAAUAUUACGAAGG", "self-splicing fitness (ln)": -0.211}
{"sequence.chain": "GCGGAGCAAUAUUACGAUCA", "self-splicing fitness (ln)": -1.56}
{"sequence.chain": "UCAAAGCAAUAUUACGCGAA", "self-splicing fitness (ln)": -0.986}
{"sequence.chain": "GUAUAGCAAUAUUACGCAGC", "self-splicing fitness (ln)": -1.25}
{"sequence.chain": "AUGAAGCAAUAUUACGAUUA", "self-splicing fitness (ln)": 0.189}
{"sequence.chain": "AUCCAGCAAUAUUACGUAGA", "self-splicing fitness (ln)": -0.0552}
{"sequence.chain": "UAUGAGCAAUAUUACGAUCU", "self-splicing fitness (ln)": -2}
{"sequence.chain": "CGAGAGCAAUAUUACGUUUC", "self-splicing fitness (ln)": -2.59}
{"sequence.chain": "ACUCAGCAAUAUUACGAAUG", "self-splicing fitness (ln)": -0.992}
{"sequence.chain": "CUUUAGCAAUAUUACGUUUG", "self-splicing fitness (ln)": -1.5}
{"sequence.chain": "CUAGAGCAAUAUUACGUCAG", "self-splicing fitness (ln)": -0.271}
{"sequence.chain": "CAAUAGCAAUAUUACGCUAA", "self-splicing fitness (ln)": -2.05}
{"sequence.chain": "UGCAAGCAAUAUUACGAUAG", "self-splicing fitness (ln)": -0.0803}
{"sequence.chain": "CGGUAGCAAUAUUACGCGAG", "self-splicing fitness (ln)": -2.36}
{"sequence.chain": "UCACAGCAAUAUUACGCGUC", "self-splicing fitness (ln)": -1.55}
{"sequence.chain": "AUGCAGCAAUAUUACGCUUG", "self-splicing fitness (ln)": -2.85}
{"sequence.chain": "UGUCAGCAAUAUUACGGGCU", "self-splicing fitness (ln)": -1.4}
{"sequence.chain": "CCCAAGCAAUAUUACGUCAG", "self-splicing fitness (ln)": -1.97}
{"sequence.chain": "AUAUAGCAAUAUUACGAAUG", "self-splicing fitness (ln)": -1.54}
{"sequence.chain": "GCGCAGCAAUAUUACGCACG", "self-splicing fitness (ln)": -1.39}
{"sequence.chain": "CUGAAGCAAUAUUACGAAUA", "self-splicing fitness (ln)": -2.22}
{"sequence.chain": "AUCAAGCAAUAUUACGGGGC", "self-splicing fitness (ln)": -3.01}
{"sequence.chain": "UGACAGCAAUAUUACGCAAC", "self-splicing fitness (ln)": -1.24}
